- TARGET UNDER TEST: T1, recombinant human FGFR2c Fc fusion (human, UniProt P21802 148-377)
- T1 construct: also called FGFR2IIIc; not shown: Fc part of the FGFR-Fc fusion
- T1 sequence (P21802 148-377): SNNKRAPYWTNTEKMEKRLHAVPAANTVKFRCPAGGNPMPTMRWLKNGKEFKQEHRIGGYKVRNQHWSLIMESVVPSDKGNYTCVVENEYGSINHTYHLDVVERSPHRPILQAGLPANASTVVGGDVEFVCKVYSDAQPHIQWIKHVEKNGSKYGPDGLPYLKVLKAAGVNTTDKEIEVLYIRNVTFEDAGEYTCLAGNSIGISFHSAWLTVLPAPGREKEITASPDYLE
- ASSAY NOTES: solid phase ELISA on coated FGFR-Fc
RECORDED ENDPOINT: pEC50
The quantity pEC50 is defined as the negative base-10 logarithm of the molar concentration.

Solved cases below.
>>> endpoint_result("Ab19 (antibody, human IgG2, kappa, V domains shown, format in the assays not spelled out) VH: EVQLLESGGGVVQPGRSLRLSCAASGFTFSSYAMHWVRQAPGKGLEWVAVISYDGSNKYYADSVKGRFTISRDNSKNTLSLQMNSLRVEDTAIYYCVRGAGRGFTLGPDGFDIWGQGTMVTVSS VL: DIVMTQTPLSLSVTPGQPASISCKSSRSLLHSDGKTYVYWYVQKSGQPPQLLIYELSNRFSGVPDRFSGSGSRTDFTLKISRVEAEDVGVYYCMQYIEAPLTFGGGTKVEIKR")
10.90
>>> endpoint_result("Ab90 (antibody, human IgG2, kappa, V domains shown, format in the assays not spelled out) VH: EVQLLESGGGVVQPGRSLRLSCAASGFTFSSYAMHWVRQAPGKGLEWVAVISYDGSNKYYADSVKGRFTISRDNSKNTLSLQMNSLRVEDTAIYYCVRGAGRGYPYGPDGFDIWGQGTMVTVSS VL: DIVMTQTPLSLSVTPGQPASISCTSSRSLLHSDGKTYVYWYVQKSGQPPQLLIYELSNRFSGVPDRFSGSGSRTDFTLKISRVEAEDVGVYYCMQYVEVPLTFGGGTKVEIKR")
10.44
>>> endpoint_result("Ab92 (antibody, human IgG2, kappa, V domains shown, format in the assays not spelled out) VH: EVQLLESGGGVVQPGRSLRLSCAASGFTFSSYAMHWVRQAPGKGLEWVAVISYDGSNKYYADSVKGRFTISRDNSKNTLSLQMNSLRVEDTAIYYCVRGAGHGFPTGPDGFDIWGQGTMVTVSS VL: DIVMTQTPLSLSVTPGQPASISCRSSRSLLHSDGKTYVYWYVQKSGQPPQLLIYELSNRFSGVPDRFSGSGSRTDFTLKISRVEAEDVGVYYCMQYVEAPLTFGGGTKVEIKR")
10.49
>>> endpoint_result("Ab15 (antibody, human IgG2, kappa, V domains shown, Format in each assay not spelled out; also called FGF#26) VH: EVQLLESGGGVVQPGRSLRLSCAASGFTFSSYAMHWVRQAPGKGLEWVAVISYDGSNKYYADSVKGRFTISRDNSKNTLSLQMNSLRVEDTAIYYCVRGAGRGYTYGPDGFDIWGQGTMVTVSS VL: DIVMTQTPLSLSVTPGQPASISCTSSRSLLHSDGKTYVYWYVQKSGQPPQLLIYELSNRFSGVPDRFSGSGSRTDFTLKISRVEAEDVGVYYCMQYIEAPLTFGGGTKVEIKR")
10.83

Proceeding to the next binder to report its pEC50.
*Q* Record request: pEC50 value, item Ab60 (antibody, human IgG2, kappa, V domains shown, format in the assays not spelled out) VH: EVQLLESGGGVVQPGRSLRLSCAASGFDFAGYAMHWVRQAPGKGLEWVAVISYDGSNKYYADSVKGRFTISRDNSKNTLSLQMNSLRVEDTAIYYCVRGAGRGLTYGPDGFDIWGQGTMVTVSS VL: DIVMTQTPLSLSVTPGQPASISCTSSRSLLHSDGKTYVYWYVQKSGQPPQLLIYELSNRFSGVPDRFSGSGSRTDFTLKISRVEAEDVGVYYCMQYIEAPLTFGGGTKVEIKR
*A* 10.65
